- Test system: P. falciparum 3D7 trophozoites
- PROCEDURE_TEXT: Metabolomic fingerprint profiling LC-MS
- Type: cell-based, Plasmodium falciparum
- RUN_PARAMETERS: metabolite inosine; S2 Table Metabolomics, change in metabolite level after compound treatment
# inosine listing for each entry below

{"COMPOUND": "COc1ccc(-c2nc(NC(=O)CS(=O)(=O)c3ccc(F)cc3)sc2C)cc1", "inosine": -0.1084}
{"COMPOUND": "CCOc1ccc(-c2nonc2NC(=O)c2cccc(C)c2)cc1OCC", "inosine": -2.254}

## Task Item: COc1ccccc1N=C1C(=O)c2ccccc2C(O)=C1N1CCCCC1 Test system: P. falciparum 3D7 trophozoites Read-out: inosine Value: ?
## Result 0.2953

## Task Item: CCC(c1ccccc1)c1nn2c(-c3cccs3)nnc2s1 (centres unmarked) Test system: P. falciparum 3D7 trophozoites Read-out: inosine Value: ?
## Result 0.2618

## Task Item: COc1ccc(Br)cc1C1Nc2ccc3ccccc3c2C2=C1C(=O)CC(c1ccccc1)C2 (centres unmarked) Test system: P. falciparum 3D7 trophozoites Read-out: inosine Value: ?
## Result 0.1551

## Task Item: COc1ccc2c(=O)cc(C(Cl)(Cl)Cl)oc2c1 Test system: P. falciparum 3D7 trophozoites Read-out: inosine Value: ?
## Result -2.706

## Task Item: Cc1ccc(-c2cc3c(SCC(=O)Nc4cc(C(F)(F)F)ccc4Cl)nccn3n2)cc1 Test system: P. falciparum 3D7 trophozoites Read-out: inosine Value: ?
## Result -0.03937

## Task Item: COc1ccc(-c2cc3c(SCC(=O)Nc4cc(C(F)(F)F)ccc4Cl)nccn3n2)cc1 Test system: P. falciparum 3D7 trophozoites Read-out: inosine Value: ?
## Result 0.1928

---

- Test system: P. falciparum 3D7 trophozoites
- PROCEDURE_TEXT: Metabolomic fingerprint profiling LC-MS
- Type: cell-based, Plasmodium falciparum
- RUN_PARAMETERS: metabolite level change after treatment
# 4-phosphopantothenate listing for each entry below

{"COMPOUND": "Cc1ccc(-c2cc3nc4c(c(O)n3n2)CCCC4)cc1", "RECORDED_MEASUREMENT": -0.3901}

## Task Item: O=C(NCC(c1ccsc1)N1CCCCCC1)c1ccc(C(F)(F)F)cc1 (centres unmarked) Test system: P. falciparum 3D7 trophozoites Read-out: 4-phosphopantothenate Value: ?
## Result -0.391

## Task Item: Cc1cc(Nc2ccc(C)c(Cl)c2)n2nc(C(F)(F)F)nc2n1 Test system: P. falciparum 3D7 trophozoites Read-out: 4-phosphopantothenate Value: ?
## Result -0.3242

## Task Item: COc1ccc2c(c1)OC(O)(C(F)(F)C(F)(F)F)CC2=O (centres unmarked) Test system: P. falciparum 3D7 trophozoites Read-out: 4-phosphopantothenate Value: ?
## Result -0.5485

## Task Item: CCCCCC(=O)N1c2ccccc2N=C2CC(c3ccc(OC)c(OC)c3)CC(O)=C2C1c1ccc(C(F)(F)F)cc1 (centres unmarked) Test system: P. falciparum 3D7 trophozoites Read-out: 4-phosphopantothenate Value: ?
## Result -0.4091

---

# nicotinate listing for each entry below
- Test system: P. falciparum 3D7 trophozoites
- PROCEDURE_TEXT: Metabolomic fingerprint profiling LC-MS
- Assay type: cell-based, Plasmodium falciparum
- RUN_PARAMETERS: metabolite nicotinate, S2 Table Metabolomics

Record excerpt, results attached:
{"COMPOUND": "Cc1cc(Nc2ccc(Cl)cc2)n2nc(C(F)(F)F)nc2n1", "nicotinate": -0.2929}
{"COMPOUND": "COc1ccc(-c2nc(NC(=O)CS(=O)(=O)c3ccc(F)cc3)sc2C)cc1", "nicotinate": -0.4616}
{"COMPOUND": "O=C1C(O)=C([C@H]2CC[C@H](c3ccc(Cl)cc3)CC2)C(=O)c2ccccc21 [Atovaquone, reference compound]", "nicotinate": 0.1461}
{"COMPOUND": "COc1cccc(NC(=O)[C@H](C(C)C)n2c(=O)[nH]c3ccccc3c2=O)c1", "nicotinate": 0.2929}
{"COMPOUND": "COc1ccccc1CNC(=O)CCn1c(=O)[nH]c2ccsc2c1=O", "nicotinate": -0.03534}

## Task I am curious: what nicotinate value has been reported for Fc1ccc2[nH]c3c(NCCCN4CCOCC4)ncnc3c2c1 ?
## Result 0.1601

## Task I am curious: what nicotinate value has been reported for CCOC(=O)c1cn(CC)c2cc(N3CCCCC3)c(F)cc2c1=O ?
## Result -0.197

## Task I am curious: what nicotinate value has been reported for COc1ccc(-c2cc3c(SCC(=O)Nc4cc(C(F)(F)F)ccc4Cl)nccn3n2)cc1 ?
## Result 0.2615

## Task I am curious: what nicotinate value has been reported for COc1ccc(C=C2SC(=N)N(c3ccccc3OC)C2=O)cc1 ?
## Result 0.1482

The measurements presented in this section are drawn from paper PMC4965013.
